# test_target: T1, human melanocortin 4 receptor (human, UniProt P32245 1-332)
# T1 construct: whole, on cells; cAMP assay on whole BHK cells; also called MC4R; human MC4 receptor
# T1 sequence (P32245 whole entry): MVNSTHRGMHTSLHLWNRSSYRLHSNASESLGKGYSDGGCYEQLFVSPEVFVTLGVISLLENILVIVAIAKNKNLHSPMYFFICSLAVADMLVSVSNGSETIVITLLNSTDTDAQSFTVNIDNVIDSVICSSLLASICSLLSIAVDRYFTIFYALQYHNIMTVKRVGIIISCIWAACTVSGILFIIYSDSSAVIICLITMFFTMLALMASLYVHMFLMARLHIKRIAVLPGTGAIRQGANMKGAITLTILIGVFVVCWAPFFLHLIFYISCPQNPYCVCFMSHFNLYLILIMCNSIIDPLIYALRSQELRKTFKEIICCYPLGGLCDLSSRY
# measurement_protocol: competition with 125-NDP-α-MSH, BHK human MC4R membranes
pKi: −log10 of the molar value. Positions of bridges follow the written chain, without caps; N, C: chain ends. Non-standard residues stand in square brackets, D forms with d. Thz = O=C(O)[C@@H]1CSCN1; GABA = NCCCC(=O)O
Param threshold (9) applies to pKi; output MET when value >= threshold, NOT MET when value < threshold.

binder: cyclo(C[GABA]H[dF]RWC[GABA]H[dF]RW) (disulfide 1-7; SMILES N=C(N)NCCC[C@@H]1NC(=O)[C@@H](Cc2ccccc2)NC(=O)[C@H](Cc2c[nH]cn2)NC(=O)CCCNC(=O)[C@@H]2CSSC[C@H](NC(=O)[C@H](Cc3c[nH]c4ccccc34)NC1=O)C(=O)NCCCC(=O)N[C@@H](Cc1c[nH]cn1)C(=O)N[C@H](Cc1ccccc1)C(=O)N[C@@H](CCCNC(=N)N)C(=O)N[C@@H](Cc1c[nH]c3ccccc13)C(=O)N2, also called c[c[Cys-GABA-His-D-Phe-Arg-Trp-Cys]-GABA-His-D-Phe-Arg-Trp]) [Chem. 35]
discrete_label: MET
//
binder: cyclo(C[Thz]H[dF]HWCAEEAW) (disulfide 1-7; SMILES C[C@@H]1NC(=O)[C@H](CCC(=O)O)NC(=O)[C@H](CCC(=O)O)NC(=O)[C@H](C)NC(=O)[C@@H]2CSSC[C@H](NC(=O)[C@H](Cc3c[nH]c4ccccc34)NC1=O)C(=O)N1CSC[C@H]1C(=O)N[C@@H](Cc1c[nH]cn1)C(=O)N[C@H](Cc1ccccc1)C(=O)N[C@@H](Cc1c[nH]cn1)C(=O)N[C@@H](Cc1c[nH]c3ccccc13)C(=O)N2, also called c[c[Cys-THAZ-His-D-Phe-His-Trp-Cys]-Ala-Glu-Glu-Ala-Trp]) [Chem. 105]
discrete_label: NOT MET

Kindly consider the entry below.
Q) Answer whether pKi of cyclo(CAH[dF]KWCAH[dF]KW) (disulfide 1-7; SMILES C[C@@H]1NC(=O)[C@@H]2CSSC[C@H](NC(=O)[C@H](Cc3c[nH]c4ccccc34)NC(=O)[C@H](CCCCN)NC(=O)[C@@H](Cc3ccccc3)NC(=O)[C@H](Cc3c[nH]cn3)NC1=O)C(=O)N[C@@H](C)C(=O)N[C@@H](Cc1c[nH]cn1)C(=O)N[C@H](Cc1ccccc1)C(=O)N[C@@H](CCCCN)C(=O)N[C@@H](Cc1c[nH]c3ccccc13)C(=O)N2, also called c[c[Cys-Ala-His-D-Phe-Lys-Trp-Cys]-Ala-His-D-Phe-Lys-Trp]) [Chem. 15] is greater than or equal to 9.
A) MET
